Test: Metabolic stability in mouse liver microsomes at 2 to 4 uM incubated for 30 mins by LC-MS/MS analysis
Assay type: ADME, Microsome
Details: dose 2-4 µM, read-out: Stability
readout label: remaining at 0.5 h (%)
Give bare numbers, in %.

# example entries with known answers
> print(dat)
                      smiles.representation  numeric.value
1  CC(C)(C)c1ccc(C(=O)CCCN2CCC(O)(c3ccc(Cl)cc3)CC2)cc1             68
2  O=C(CCCN1CC=C(c2ccc(Cl)cc2)CC1)c1ccc(F)cc1             90
3  CC(C)(C)c1ccc(C(=O)CCCN2CCC(O)(c3ccc(Br)cc3)CC2)cc1             58
4  O=C(CCCN1CCC(O)(c2ccc(Br)cc2)CC1)c1ccc(Cl)cc1             83

Entry `CC(C)(C)c1ccc(C(=O)CCCN2CCC(O)(c3ccc(F)cc3)CC2)cc1` — recorded remaining at 0.5 h = 48

From: ChEMBL document CHEMBL5107950
